# System: K. pneumoniae Ecl8
# Assay: Broth micro-dilution MIC / dose-response growth inhibition
# Assay type: cell-based, Klebsiella pneumoniae
# Experimental setup: S/R interpretation by EUCAST breakpoint, ECOFF or fold vs QC strain
Value kind: K. pneumoniae Ecl8 Interp.

See these solved cases before continuing.
Compound	K. pneumoniae Ecl8 Interp.
CNC(C)C1CCC(N)C(OC2C(N)CC(N)C(OC3OCC(C)(O)C(NC)C3O)C2O)O1 (stereo not shown) [Gentamicin]	S
CO/N=C(\C(=O)N[C@@H]1C(=O)N2C(C(=O)[O-])=C(C[N+]3(C)CCCC3)CS[C@H]12)c1csc(N)n1 [Cefepime]	S
CN[C@@H]1[C@@H](O[C@H]2O[C@H](CO)[C@@H](N)[C@H](O)[C@H]2O)OC2C[C@@H](N)[C@@H](O[C@H]3[C@H](O)[C@@H](O)[C@H](N)C[C@@H]3N)OC2[C@@H]1O (stereo partly shown) [Apramycin]	S ^c
C[C@@H](O)[C@H]1C(=O)N2C(C(=O)O)=C(SCCN=CN)C[C@H]12 [Imipenem]	S
C[C@H]1[C@H](NC(=O)/C(=N\OC(C)(C)C(=O)O)c2csc(N)n2)C(=O)N1S(=O)(=O)O [Aztreonam]	S

## Input Quick check: K. pneumoniae Ecl8 Interp. of C[C@@H]1O[C@@H]1P(=O)(O)O [Fosfomycin] ?
## Output R

## Input K. pneumoniae Ecl8 Interp. lookup needed for COc1cc(Cc2cnc(N)nc2N)cc(OC)c1OC [Trimethoprim] , thanks.
## Output S

* * *

# Test system: K. pneumoniae NCTC 13438
Value kind: MIC (µg/mL)
Provide the reading as a plain figure in µg/mL.

Smiles data	MIC, µg/mL
CN(C)[C@@H]1C(O)=C(C(N)=O)C(=O)[C@@]2(O)C(O)=C3C(=O)c4c(O)cccc4[C@@](C)(O)[C@H]3C[C@@H]12	4

## Input Please state recorded MIC (tested on K. pneumoniae NCTC 13438) of `C[C@@H](O)[C@H]1C(=O)N2C(C(=O)O)=C(SCCN=CN)C[C@H]12`
## Output 128

* * *

# Test system: K. pneumoniae NCTC 13438
Value kind: MIC (mg/L)
Entry rule: numbers only, all in mg/L.

## Input Lab note: need MIC for CN(C)c1ccc(O)c2c1C[C@H]1C[C@H]3[C@H](N(C)C)C(O)=C(C(N)=O)C(=O)[C@@]3(O)C(O)=C1C2=O [Minocycline] on K. pneumoniae NCTC 13438, anyone have it?
## Output 4

## Input Checklist item: MIC tested on K. pneumoniae NCTC 13438, entry CC(C)(O/N=C(\C(=O)N[C@@H]1C(=O)N2C(C(=O)[O-])=C(C[n+]3ccccc3)CS[C@H]12)c1csc(N)n1)C(=O)O [Ceftazidime] , value?
## Output 512

## Input Test system K. pneumoniae NCTC 13438; read-out MIC; what value for O=C(N[C@H](CO)[C@H](O)c1ccc([N+](=O)[O-])cc1)C(Cl)Cl [Chloramphenicol] ?
## Output 32

* * *

# Tested on: K. pneumoniae Ecl8
# Assay: Broth micro-dilution MIC / dose-response growth inhibition
# Format: cell-based, Klebsiella pneumoniae
# Experimental setup: S/R interpretation by EUCAST breakpoint, ECOFF or fold vs QC strain
Value kind: K. pneumoniae Ecl8 Interp.

Solved cases below.
Molecule	K. pneumoniae Ecl8 Interp.
NCC[C@H](O)C(=O)N[C@@H]1C[C@H](N)[C@@H](O[C@H]2O[C@H](CN)[C@@H](O)[C@H](O)[C@H]2O)[C@H](O)[C@H]1O[C@H]1O[C@H](CO)[C@@H](O)[C@H](N)[C@H]1O [Amikacin]	S
Cc1cc(NS(=O)(=O)c2ccc(N)cc2)no1 [Sulfamethoxazole]	R ^c
C[C@H]1COc2c(N3CCN(C)CC3)c(F)cc3c(=O)c(C(=O)O)cn1c23 [Levofloxacin]	S
CN(C)c1ccc(O)c2c1C[C@H]1C[C@H]3[C@H](N(C)C)C(O)=C(C(N)=O)C(=O)[C@@]3(O)C(O)=C1C2=O [Minocycline]	S ^b
CC(C)(O/N=C(\C(=O)N[C@@H]1C(=O)N2C(C(=O)[O-])=C(C[n+]3ccccc3)CS[C@H]12)c1csc(N)n1)C(=O)O [Ceftazidime]	S
CN(C)[C@@H]1C(O)=C(C(N)=O)C(=O)[C@@]2(O)C(O)=C3C(=O)c4c(O)cccc4[C@@](C)(O)[C@H]3C[C@@H]12 [Tetracycline]	S ^b

## Input Quick one: K. pneumoniae Ecl8 Interp. of C[C@@H](O)[C@H]1C(=O)N2C(C(=O)O)=C(S[C@@H]3CN[C@H](C(=O)N(C)C)C3)[C@H](C)[C@H]12 [Meropenem] ?
## Output S

## Input Which value of K. pneumoniae Ecl8 Interp. has been reported for NC[C@H]1O[C@H](O[C@H]2[C@H](O)[C@@H](O[C@H]3O[C@H](CO)[C@@H](O)[C@H](N)[C@H]3O)[C@H](N)C[C@@H]2N)[C@H](N)C[C@@H]1O [Tobramycin] in the records?
## Output S

## Input Form field: reported K. pneumoniae Ecl8 Interp. of CO/N=C(\C(=O)N[C@@H]1C(=O)N2C(C(=O)O)=C(COC(C)=O)CS[C@H]12)c1csc(N)n1 [Cefotaxime]
## Output S

## Input What value of K. pneumoniae Ecl8 Interp. has been recorded for this entry: O=C(N[C@H](CO)[C@H](O)c1ccc([N+](=O)[O-])cc1)C(Cl)Cl [Chloramphenicol]
## Output S

* * *

# System: K. pneumoniae NCTC 13438
Binary label based on MIC with cut-off 20 µg/mL: below gives YES, not below gives NO.

Compound	Class name
Cc1cc(NS(=O)(=O)c2ccc(N)cc2)no1	NO
C[C@@H]1O[C@@H]1P(=O)(O)O	YES

## Input Record `CO/N=C(\C(=O)N[C@@H]1C(=O)N2C(C(=O)O)=C(COC(C)=O)CS[C@H]12)c1csc(N)n1` : is its MIC strictly below 20 µg/mL?
## Output NO

## Input Identify whether the compound `NC[C@H]1O[C@H](O[C@H]2[C@H](O)[C@@H](O[C@H]3O[C@H](CO)[C@@H](O)[C@H](N)[C@H]3O)[C@H](N)C[C@@H]2N)[C@H](N)C[C@@H]1O` records MIC below 20 µg/mL.
## Output NO

## Input Hello, is MIC of the following compound strictly smaller than 20 µg/mL? CNC(C)C1CCC(N)C(OC2C(N)CC(N)C(OC3OCC(C)(O)C(NC)C3O)C2O)O1 (centres unmarked)
## Output YES

## Input API: query returns whether the compound falls strictly under 20 µg/mL in MIC. Query: `O=C(O)c1cn(C2CC2)c2cc(N3CCNCC3)c(F)cc2c1=O`
## Output NO

## Input Please check: MIC for `C[C@H]1COc2c(N3CCN(C)CC3)c(F)cc3c(=O)c(C(=O)O)cn1c23` , strictly under 20 µg/mL or not?
## Output NO

* * *

# Test system: K. pneumoniae NCTC 13438
# Assay: Broth micro-dilution MIC / dose-response growth inhibition
# Type: cell-based, Klebsiella pneumoniae
# Experimental setup: Klebsiella pneumoniae, NCTC13438, read-out: K. pneumoniae NCTC 13438 MIC
Value kind: MIC (µg/mL)
Could you give me the number in µg/mL? Just the number is fine.

Known results for compounds:
Compound	System tested	Value kind	Result unit	Endpoint result
CO/N=C(\C(=O)N[C@@H]1C(=O)N2C(C(=O)[O-])=C(C[N+]3(C)CCCC3)CS[C@H]12)c1csc(N)n1 [Cefepime]	K. pneumoniae NCTC 13438	MIC	µg/mL	128
CN[C@@H]1[C@@H](O[C@H]2O[C@H](CO)[C@@H](N)[C@H](O)[C@H]2O)OC2C[C@@H](N)[C@@H](O[C@H]3[C@H](O)[C@@H](O)[C@H](N)C[C@@H]3N)OC2[C@@H]1O (stereo partly shown) [Apramycin]	K. pneumoniae NCTC 13438	MIC	µg/mL	4

## Input Give the measured MIC of NCC[C@H](O)C(=O)N[C@@H]1C[C@H](N)[C@@H](O[C@H]2O[C@H](CN)[C@@H](O)[C@H](O)[C@H]2O)[C@H](O)[C@H]1O[C@H]1O[C@H](CO)[C@@H](O)[C@H](N)[C@H]1O [Amikacin] .
## Output 64
